// reported TGI for each item listed
test system: ACHN renal; assay: NCI tumour cell line growth inhibition, 48 h

INSERT INTO results (compound, experimental_result) VALUES
  ('Cc1cccc(Nc2ncc(-c3ccccc3)o2)c1', '> 25 µM'),
  ('Oc1ccc(Cl)cc1N=Nc1c(O)ccc2ccccc12', '> 100 µM'),
  ('O=S1(=O)OCCOS(=O)(=O)C1C1c2ccccc2-c2ccccc21', '> 100 µM'),
  ('c1ccc(C2SCc3nc4ccccc4n32)cc1 (stereo not given)', '> 100 µM');

Prompt: Please report the measured TGI for C#CCN1C(=O)CN2C(Cl)(Cl)C2(c2ccccc2)c2cc(Cl)ccc21 (stereo not given)
Completion: > 100 µM

Data credit: PubChem BioAssay (NCI)
